Target: T1, human IL-2Rβ (human, UniProt P14784 27-240, limits assumed)
T1 construct: Recombinant protein, coated (ELISA) or immobilised on CM5 (SPR); also called hu IL-2R; interleukin 2 receptor β-chain
T1 sequence: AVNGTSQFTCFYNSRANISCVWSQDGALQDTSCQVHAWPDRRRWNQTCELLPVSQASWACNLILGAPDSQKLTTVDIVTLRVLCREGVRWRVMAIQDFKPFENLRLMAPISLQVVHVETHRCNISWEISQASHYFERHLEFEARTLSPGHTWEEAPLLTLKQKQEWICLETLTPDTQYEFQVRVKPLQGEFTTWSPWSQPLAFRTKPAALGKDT
Assay: P.E. binding ELISA on coated protein
Note to self: use criterion met only for P.E. binding ELISA OD readings below 0.4 OD450 nm; a reading exactly at 0.4 OD450 nm still gets criterion not met.

• FJ1427 P035MP03E05 (VHH, soluble VHH in periplasmic extract; also called clone nr) VHH: EVQLVESGGGLVQAGGSLRLSCAVSGVIFWSDVVGWYRQASGKQRELVATINLDDTKHYGEVVKGRFAISRDSHKNAYYLQLNSLKPEDTAVYYCNVRRGSEFYWGQGTQVTVSS = criterion met
• FJ1427 P035MP06G01 (VHH, soluble VHH in periplasmic extract; also called clone nr) VHH: EVQLVESGGGLVQAGDSLRLSCVVSGRGFSTYTMGWFRQAPGKEREFVAAITWSTGRTSYADSVKGRFTISRENAENTVYLQMNSLELEDTAVYYCATDQVLWTTRPRDMRYWGQGTQVTVSF = criterion not met
• FJ1427 P035MP03C10 (VHH, soluble VHH in periplasmic extract; also called clone nr) VHH: QVQLVESGGGLVQAGGSLRLSCAASGRTFSTTEMGWFRQAPGKEREFVAAITWTGRGTMYAESVEGRFTISRENAKNMVYLQMNSLKPEDTAIYYCAAARRGRAAVRSEGGYDFWGQGTQVTVSS = criterion not met
• FJ1427_P035MP03E02 (VHH, soluble VHH in periplasmic extract; also called clone nr) VHH: QVQLVESGGGLVQVGGSLSVSCAASGRSFDSITMAYFRQAPGNEREFIAGINFSGSRTAYGDSVKGRFTISRDNAKNTVFLQMNSLNPEDTAVYYCAASPRGFYGPGHALYDYWGQGTQVTVSS = criterion not met
• FJ1427_P035MP03F04 (VHH, soluble VHH in periplasmic extract; also called clone nr) VHH: EVQLVESGGGLVQTGGSLRLSCAASGSQFINDVMGWYRQVPGKQRELVADMDDTGSTKYADSVKGRFTILRDSVKNTAYLQMSNLKPEDTGVYYCKAGLWIKGRHSDYWGQGTQVTVSS = criterion met
• FJ1427_P035MP06A01 (VHH, soluble VHH in periplasmic extract; also called clone nr) VHH: QVQLVESGGGLVQAGGSLRLACALSGDVFVRYTMAWFRQAPGKEREFVASVTDSGRTTDYVASVQGRFTVSRDNNKNTVYLQMNSLKPEDTAVYYCAANTDYFQIRSLDRNTWGQGTQVTVSS = criterion met
• FJ1427 P035MP03C11 (VHH, soluble VHH in periplasmic extract; also called clone nr) VHH: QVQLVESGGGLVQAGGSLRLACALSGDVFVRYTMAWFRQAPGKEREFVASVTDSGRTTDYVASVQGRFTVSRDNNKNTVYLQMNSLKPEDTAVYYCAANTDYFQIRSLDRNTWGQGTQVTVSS = criterion not met
